Reported EC50 is given for each of the following compounds.
# TGT: Streptokinase A (Streptococcus pyogenes serotype M1)
# Sequence (P10520 whole entry): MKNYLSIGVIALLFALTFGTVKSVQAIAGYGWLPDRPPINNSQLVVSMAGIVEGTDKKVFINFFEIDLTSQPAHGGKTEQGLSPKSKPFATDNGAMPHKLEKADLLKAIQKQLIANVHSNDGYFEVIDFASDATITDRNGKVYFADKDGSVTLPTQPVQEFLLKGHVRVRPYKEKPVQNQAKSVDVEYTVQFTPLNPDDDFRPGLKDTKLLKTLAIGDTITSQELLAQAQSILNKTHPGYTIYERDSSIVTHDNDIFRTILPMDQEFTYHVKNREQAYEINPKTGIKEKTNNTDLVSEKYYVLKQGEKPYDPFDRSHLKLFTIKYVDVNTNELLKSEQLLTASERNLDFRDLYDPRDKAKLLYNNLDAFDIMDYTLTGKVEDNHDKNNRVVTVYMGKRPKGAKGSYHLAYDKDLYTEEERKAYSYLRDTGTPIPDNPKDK
# MEASUREMENT NOTES: S. pyogenes streptokinase expression inhibitors, potency, dose response, plasminogen activation absorbance, OD405 (AID 1914);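 note: secreted streptokinase activity via plasminogen activation per viability signal from cell pellet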
# Type: functional, Streptococcus pyogenes M1 GAS
Calls of active or inactive are those of the source. Cut-off read from the data, not from the text of the source: actives have a measured EC50 and inactives only a lower limit.
PARAMETER MEASURED: EC50

COMPOUND	RESULT
C#CCOCCOCCOCCNc1nc(N2CCN(C(=O)CCCCCCCCCCNC(=O)[C@H](CCCCN)n3cc(C[C@@H](C)CC)nn3)CC2)nc(N2CCN(C(=O)CCCCCCCCCCNC(=O)[C@H](CCCCN)n3cc(C[C@@H](C)CC)nn3)CC2)n1	13.9 µM (active)
CC(C)C(Sc1nc(-c2ccccc2)cc(-c2ccccc2)c1C#N)C(=O)O (stereo not given)	10.1 µM (active)
C/C(N)=C(/C#N)C(=O)CSc1nc2scc(-c3ccccc3)c2c(=O)n1C	> 150 µM (not active)
Nc1ccc(-c2cn3cccnc3n2)cc1	> 150 µM (not active)
FC(F)(F)c1ccc(C2[C@H]3CN(Cc4cccnc4)[C@H](c4ccccc4)C34CC2(c2cccnc2)C4)cc1 (stereo not given in full)	6.65 µM (active)
